TARGET DESC: ERK2 (as used in the fluorescence polarization titrations) (human, UniProt P28482 1-360)
Sequence (P28482 whole entry): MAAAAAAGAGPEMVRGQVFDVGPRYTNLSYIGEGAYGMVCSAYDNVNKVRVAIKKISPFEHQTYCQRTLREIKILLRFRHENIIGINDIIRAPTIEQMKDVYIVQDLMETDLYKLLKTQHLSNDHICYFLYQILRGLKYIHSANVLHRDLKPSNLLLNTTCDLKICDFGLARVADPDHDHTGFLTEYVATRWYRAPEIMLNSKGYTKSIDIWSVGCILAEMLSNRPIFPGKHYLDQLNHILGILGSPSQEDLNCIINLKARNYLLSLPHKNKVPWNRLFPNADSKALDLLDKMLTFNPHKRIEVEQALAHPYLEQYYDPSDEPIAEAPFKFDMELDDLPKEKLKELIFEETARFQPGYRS
PROTOCOL SUMMARY: FP
Ends that are not written are not given here.
METRIC NAME: Kd (µM)
Write the number in µM without appending the unit.

Answered cases to consult:
                                     binder  metric_name  numeric_result
0  RPQDLNL (not fully specified) [MKP5 peptide]           Kd            84.7
1  RPASLNL (not fully specified) [DOCK7 peptide]           Kd            51.2
2  KRRSLRVHIP (not fully specified) [AAKG2 peptide]           Kd            17.5

# ---- query binder ----
For RPKSLQL (not fully specified) [DOCK5 peptide] , what is its reported Kd?
31.8

# credit: paper PMC4670726
